Numbers sourced from patent US20170362301A1.

Below, each entry is listed alongside its reported binding ratio vs parent P54AR4-83v2.
Target Entity: EGFR (form in the assay not stated) (human, UniProt P00533 25-645, limits assumed)
Assay Method Text: ELISA, NEM conjugate 500 nM
Provide the reading as a plain figure in ratio.

- P54AR4-83v2 S70C, NEM conjugate (designed binder, NEM on Cys 70, His-tagged) LPAPKNLVVSEVTEDSARLSWDDPWAFYESFLIQYQESEKVGEAIVLTVPGSERSYDLTGLKPGTEYTVCIYGVHNVYKDTNMRGLPLSAIFTT: 0.93
- P54AR4-83v2 D80C, NEM conjugate (designed binder, NEM on Cys 80, His-tagged) LPAPKNLVVSEVTEDSARLSWDDPWAFYESFLIQYQESEKVGEAIVLTVPGSERSYDLTGLKPGTEYTVSIYGVHNVYKCTNMRGLPLSAIFTT: 0.91
- P54AR4-83v2 W25C, NEM conjugate (designed binder, NEM on Cys 25, His-tagged) LPAPKNLVVSEVTEDSARLSWDDPCAFYESFLIQYQESEKVGEAIVLTVPGSERSYDLTGLKPGTEYTVSIYGVHNVYKDTNMRGLPLSAIFTT: 0.7

Kindly consider the entry below.
Query: Using the record for P54AR4-83v2 P4C, NEM conjugate (designed binder, NEM on Cys 4, His-tagged) LPACKNLVVSEVTEDSARLSWDDPWAFYESFLIQYQESEKVGEAIVLTVPGSERSYDLTGLKPGTEYTVSIYGVHNVYKDTNMRGLPLSAIFTT , state its measured binding ratio vs parent P54AR4-83v2.
Response: 0.12
